- measuredOn: G-protein coupled bile acid receptor 1 (GPBAR1 or TGR5) (Homo sapiens, UniProt Q8TDU6)
- Construct: human TGR5-ORF (NM_170699), stably expressed in HEK EPAC cells
- Sequence (Q8TDU6 whole entry): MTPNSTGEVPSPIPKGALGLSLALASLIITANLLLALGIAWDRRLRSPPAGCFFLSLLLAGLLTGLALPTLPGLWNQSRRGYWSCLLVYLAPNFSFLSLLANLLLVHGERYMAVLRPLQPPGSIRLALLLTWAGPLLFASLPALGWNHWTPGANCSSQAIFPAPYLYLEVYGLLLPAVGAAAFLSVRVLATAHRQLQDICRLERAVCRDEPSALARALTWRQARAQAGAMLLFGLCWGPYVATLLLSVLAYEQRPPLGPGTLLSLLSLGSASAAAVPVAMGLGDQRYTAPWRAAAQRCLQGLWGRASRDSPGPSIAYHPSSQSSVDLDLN
- assayRemarks: EPAC FRET cAMP accumulation assay in TGR5-expressing HEK cells; inactive in non-TGR5 cells
propertyMeasured: EC50 (µM)

C/C=C(/C)C(=O)OCC[C@H]1[C@@H](Cc2ccc(OC)c(OC)c2)CO[C@@H]1c1ccc(OC)c(OC)c1 [compound 1, LT-188A] :: 23
